Target: T1, MICA.008.a3.R202-S297.R202N mIgG2a.Glyco11 (human; mouse, UniProt Q29983 203-297, engineered N-linked glycosylation site R202N)
T1 construct: not shown: murine IgG2a Fc
T1 chain: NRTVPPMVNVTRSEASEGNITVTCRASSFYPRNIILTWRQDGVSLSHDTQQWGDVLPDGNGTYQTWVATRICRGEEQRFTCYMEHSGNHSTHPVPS
Experiment: ELISA, coated variant;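 also: ELISA with plates coated at 2 ug/ml with MICA*008 alpha 3 glycosylation variants as murine IgG2a Fc fusions, antibody binding detected by HRP anti-human IgG Fc and TMB absorbance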
Experimental Endpoint: binding result

INSERT INTO results (binder, obs_value) VALUES
  ('1E6.1.3 (antibody, V domains shown, Mouse hybridoma antibody; constant regions differ by assay) VH: QVQLKESGPGLVAPSQSLSITCTVSGFSLTGSGVNWVRQPPGQGLEWLGMIWGDGNTDYNSALKSRLSISKDNSKSQVFLKMNSLQTDDTARYYCARGAHYGKRWYFDVWGAGTTVTVSS VL: DIQMTQTTFSLSASLGDRVTISCSASQGINNYLNWYQQRPDGTVKLLIYYTSTLPSGVPSRFSGSGSGTDYSLTISNLEPEDIASYYCQQYSKLPPTFGGGTKVEIK', 'binds');

The measurements presented in this section are drawn from patent US20200055939A1.
